Reported pKd values follow for various binders
- Experimental System: T1, mouse TfR ectodomain fused to a mouse IgG1 Fc fragment (mouse, UniProt Q62351 89-763)
- T1 construct: extracellular domain; not shown: mouse IgG1 Fc fragment
- T1 sequence (Q62351 89-763): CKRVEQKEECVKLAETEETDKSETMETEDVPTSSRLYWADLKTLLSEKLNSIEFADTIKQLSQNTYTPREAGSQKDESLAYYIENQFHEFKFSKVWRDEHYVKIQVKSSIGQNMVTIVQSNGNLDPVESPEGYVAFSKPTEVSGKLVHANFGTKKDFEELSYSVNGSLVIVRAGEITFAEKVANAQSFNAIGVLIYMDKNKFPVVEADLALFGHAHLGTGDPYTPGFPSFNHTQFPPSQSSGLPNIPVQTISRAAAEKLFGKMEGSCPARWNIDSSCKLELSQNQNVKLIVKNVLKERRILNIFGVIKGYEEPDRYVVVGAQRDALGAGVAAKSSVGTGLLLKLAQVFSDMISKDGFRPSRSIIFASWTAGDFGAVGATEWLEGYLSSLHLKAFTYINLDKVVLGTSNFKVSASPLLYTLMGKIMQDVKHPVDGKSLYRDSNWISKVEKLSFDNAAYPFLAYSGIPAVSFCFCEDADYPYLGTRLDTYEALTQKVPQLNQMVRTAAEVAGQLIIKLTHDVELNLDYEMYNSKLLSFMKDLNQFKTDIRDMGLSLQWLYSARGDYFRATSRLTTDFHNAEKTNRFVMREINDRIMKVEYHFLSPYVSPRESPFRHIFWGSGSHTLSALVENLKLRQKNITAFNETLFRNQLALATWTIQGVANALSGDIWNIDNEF
- Procedure Summary: SPR, at equilibrium
pKd: −log10 of the molar value.

Binder	pKd
VHH A4 (C5^V4) (VHH) VHH: EVQLVESGGGVVQPGGSLKLSCVASGTDFSINFIRWYRQAPGKQREFVAGFTATGATNYADSMKGRFTISRDNTKNAVYLQIDSLKPEDTAVYYCYMLDKWGQGTQVTVSS	7.04
VHH A3 (C5^V3) (VHH) VHH: EVQLVESGGGVVQPGGSLKLSCVASGTDFSINFIRWYRQAPGKQREFVAGFTAAGNTNYADSMKGRFTISRDNTKNAVYLQIDSLKPEDTAVYYCYMLDKWGQGTQVTVSS	7.01
B8^V3 (VHH) VHH: EVQLVESGGGVVQPGGSLRLSCAASGEIFSINFMRWYREAPGKQREWVAGFTRDGSTNYPDSAKGRFTISRDNAKNTVYLQIDSLKPEDTAVYYCYMLDTWGQGTQVTVSS	6.69
C5^h19 (VHH) VHH: EVQLVESGGGVVQPGGSLRLSCAASGTDFSINFIRWYRQAPGKQREFVAGFTATGNTNYADSVKGRFTISRDNAKNTLYLQMNSLRPEDTAVYYCYMLDKWGQGTQVTVSS	5.56
